The reported numbers originate from paper PMC5566973.

- protocol.details: in vitro
- condition.details: human, Caco-2, ER, Caco-2, initial concentration 5 μM
property.measured: efflux ratio

**Q:** Output efflux ratio of COc1ccc2c3c([nH]c2c1)C(C)=NCC3
**A:** 1.03

----------
- protocol.details: in vitro
- condition.details: human, Caco-2, PappAB, Caco-2, initial concentration 2 μM
property.measured: Papp A→B (×10⁻⁶ cm/s)
Numbers only; they are read as ×10⁻⁶ cm/s.

**Q:** Output Papp A→B of COc1ccc2c(c1)[nH]c1c(C)nccc12
**A:** 18.8

----------
- Tested on: Na+/K+-ATPase
- protocol.details: Bidirectional transport in MDCK cell monolayers with selective transporter inhibitors or substrates
- Type: in vitro ADME, canine
- condition.details: dog, with sodium vanadate 0.05 mM (50 μM), + Sodium vanadate 0.05 mM (Na^+)
- Experimental: Caco-2, MDCK and MDCK-MRP2 cells were donated by Prof. Yan Xie and Yueming Ma from Shanghai University of Traditional Chinese Medicine. […] The apparent permeability coefficients (Papp) and ER were calculated as Equations (2) and (3): […] where dQ/dt is the steady-state flux, A is the membrane surface area, and C0 is the initial drug concentration in the donor compartment. PappBA is the Papp-value measured in BL to AP direction and PappAB is the Papp-value measured in AP to BL direction. […]
property.measured: Papp A→B at 120 min, 2 μM (×10⁻⁶ cm/s)
Numbers only; they are read as ×10⁻⁶ cm/s.

COc1ccc2c(c1)[nH]c1c(C)nccc12	3.87

**Q:** Output Papp A→B at 120 min, 2 μM of COc1ccc2c3c([nH]c2c1)C(C)=NCC3
**A:** 16.2

----------
- protocol.details: Pharmacokinetics in rats after intravenous and intragastric administration
- condition.details: both, Sprague-Dawley, rat, in vivo, iv, 3.3 mg/kg
property.measured: clearance
Be sure to follow the number with its unit.

COc1ccc2c(c1)[nH]c1c(C)nccc12	40.8 mL/min/kg

The record that follows has no clearance shown yet.
**Q:** Output clearance of COc1ccc2c3c([nH]c2c1)C(C)=NCC3
**A:** 173 mL/min/kg

----------
- Test system: MCTs
- protocol.details: Bidirectional transport in MDCK cell monolayers with selective transporter inhibitors or substrates
- Type: in vitro ADME, canine
- condition.details: dog, with phloretin 0.3 mM, + Phloretin 0.3 mM (MCTs), read-out: ER
property.measured: efflux ratio at 120 min, 2 μM
Hey, just send me the number, nothing else.

**Q:** Output efflux ratio at 120 min, 2 μM of COc1ccc2c3c([nH]c2c1)C(C)=NCC3
**A:** 1.15

----------
- System: PEPT1
- protocol.details: Bidirectional transport in MDCK cell monolayers with selective transporter inhibitors or substrates
- Type: in vitro ADME, canine
- condition.details: dog, with Gly-Sar 10 mM, + Gly-Sar 10 mM (PEPT1)
property.measured: Papp A→B at 120 min, 2 μM (×10⁻⁶ cm/s)
Numbers only; they are read as ×10⁻⁶ cm/s.

**Q:** Output Papp A→B at 120 min, 2 μM of COc1ccc2c3c([nH]c2c1)C(C)=NCC3
**A:** 20.9

----------
- protocol.details: in vitro
- condition.details: dog, MDCK, ER, 2 μM, 4°C
property.measured: efflux ratio
Hey, just send me the number, nothing else.

**Q:** Output efflux ratio of COc1ccc2c3c([nH]c2c1)C(C)=NCC3
**A:** 1.23

----------
- System: PEPT1
- protocol.details: Bidirectional transport in MDCK cell monolayers with selective transporter inhibitors or substrates
- Format: in vitro ADME, canine
- condition.details: dog, with Gly-Sar 10 mM, + Gly-Sar 10 mM (PEPT1), read-out: ER
- Procedure: Caco-2, MDCK and MDCK-MRP2 cells were donated by Prof. Yan Xie and Yueming Ma from Shanghai University of Traditional Chinese Medicine. […] The apparent permeability coefficients (Papp) and ER were calculated as Equations (2) and (3): […] where dQ/dt is the steady-state flux, A is the membrane surface area, and C0 is the initial drug concentration in the donor compartment. PappBA is the Papp-value measured in BL to AP direction and PappAB is the Papp-value measured in AP to BL direction. […]
property.measured: efflux ratio at 120 min, 2 μM

**Q:** Output efflux ratio at 120 min, 2 μM of COc1ccc2c3c([nH]c2c1)C(C)=NCC3
**A:** 1.03

----------
- protocol.details: in vitro
- condition.details: human, Caco-2, PappAB, Caco-2, initial concentration 1 μM
Recorded Papp A→B, one value per entry.
Be sure to follow the number with its unit.

COc1ccc2c3c([nH]c2c1)C(C)=NCC3 [Harmaline]	27.4 ×10⁻⁶ cm/s

**Q:** Output Papp A→B of COc1ccc2c(c1)[nH]c1c(C)nccc12 [Harmine]
**A:** 15.1 ×10⁻⁶ cm/s

----------
- Tested on: MRP2
- protocol.details: Bidirectional transport in MDCK cell monolayers with selective transporter inhibitors or substrates
- Type: in vitro ADME, canine
- condition.details: dog, with MK571 0.05 mM (50 μM), + MK571 0.05 mM (MRP2)
property.measured: Papp B→A at 120 min, 2 μM
Be sure to follow the number with its unit.

**Q:** Output Papp B→A at 120 min, 2 μM of COc1ccc2c(c1)[nH]c1c(C)nccc12
**A:** 6.67 ×10⁻⁶ cm/s

----------
- protocol.details: in vitro
- condition.details: human, Caco-2, pH 5.5, ER, Caco-2, 2 μM, pH 5.5
property.measured: efflux ratio

**Q:** Output efflux ratio of COc1ccc2c3c([nH]c2c1)C(C)=NCC3 [Harmaline]
**A:** 0.88

----------
- protocol.details: Pharmacokinetics in rats after intravenous and intragastric administration
- condition.details: both, Sprague-Dawley, rat, in vivo, po, 40 mg/kg, Tmax, rats, harmine p.o. 40.0 mg/kg co-administered with probenecid 20.0 mg/kg
property.measured: Tmax

**Q:** Output Tmax of COc1ccc2c(c1)[nH]c1c(C)nccc12
**A:** 47.4 min

----------
Recorded Cumulative excretion in feces (%) of the analyte, one value per entry.
- protocol.details: Urinary and fecal excretion in rats
- Format: in vivo, Sprague-Dawley rats
- condition.details: after oral harmaline 40.0 mg/kg, 72 h
Numbers only; they are read as %.

Solved entries (count: 3):
CC1=NCCc2c1[nH]c1cc(O)ccc21 [Harmalol]	1.89
COc1ccc2c3c([nH]c2c1)C(C)=NCC3 [Harmaline]	0.19
COc1ccc2c(c1)[nH]c1c(C)nccc12 [Harmine]	0.02

**Q:** Output Cumulative excretion in feces (%) of the analyte of Cc1[nH]ccc2c1[nH]c1cc(=O)ccc12 [Harmol]
**A:** 1.70

----------
- protocol.details: in vitro
- condition.details: human, Caco-2, pH 5.5, PappAB, Caco-2, 2 μM, pH 5.5
Recorded Papp A→B, one value per entry.
Numbers only; they are read as ×10⁻⁶ cm/s.

COc1ccc2c3c([nH]c2c1)C(C)=NCC3 [Harmaline]	7.6

**Q:** Output Papp A→B of COc1ccc2c(c1)[nH]c1c(C)nccc12 [Harmine]
**A:** 5.27

----------
- protocol.details: in vitro
- condition.details: dog, MDCK, ER, initial concentration 1 μM
property.measured: efflux ratio
Hey, just send me the number, nothing else.

**Q:** Output efflux ratio of COc1ccc2c3c([nH]c2c1)C(C)=NCC3
**A:** 1.23

----------
Recorded Papp B→A at 120 min, 2 μM, one value per entry.
- Test system: Na+/K+-ATPase
- protocol.details: Bidirectional transport in MDCK cell monolayers with selective transporter inhibitors or substrates
- Assay type: in vitro ADME, canine
- condition.details: dog, with sodium vanadate 0.05 mM (50 μM), + Sodium vanadate 0.05 mM (Na^+)
- Procedure: Caco-2, MDCK and MDCK-MRP2 cells were donated by Prof. Yan Xie and Yueming Ma from Shanghai University of Traditional Chinese Medicine. […] The apparent permeability coefficients (Papp) and ER were calculated as Equations (2) and (3): […] where dQ/dt is the steady-state flux, A is the membrane surface area, and C0 is the initial drug concentration in the donor compartment. PappBA is the Papp-value measured in BL to AP direction and PappAB is the Papp-value measured in AP to BL direction. […]
Numbers only; they are read as ×10⁻⁶ cm/s.

COc1ccc2c3c([nH]c2c1)C(C)=NCC3 [Harmaline]	20.4

The record that follows has no Papp B→A at 120 min, 2 μM shown yet.
**Q:** Output Papp B→A at 120 min, 2 μM of COc1ccc2c(c1)[nH]c1c(C)nccc12 [Harmine]
**A:** 5.22

----------
- System: MRP2
- protocol.details: Bidirectional transport in MDCK-MRP2 cell monolayers with MRP2 inhibitors
- Type: in vitro ADME, canine
- condition.details: dog, with probenecid 0.2 mM (200 μM); MDCK-MRP2, 2 μM, + Probenecid 0.2 mM (MRP2)
property.measured: Papp A→B at 120 min, 2 μM
Be sure to follow the number with its unit.

COc1ccc2c(c1)[nH]c1c(C)nccc12 [Harmine]	10.1 ×10⁻⁶ cm/s

The record that follows has no Papp A→B at 120 min, 2 μM shown yet.
**Q:** Output Papp A→B at 120 min, 2 μM of COc1ccc2c3c([nH]c2c1)C(C)=NCC3 [Harmaline]
**A:** 32.9 ×10⁻⁶ cm/s
